# experimental_system: Inhibitor of nuclear factor kappa-B kinase subunit beta (Homo sapiens)
# Sequence (O14920 whole entry): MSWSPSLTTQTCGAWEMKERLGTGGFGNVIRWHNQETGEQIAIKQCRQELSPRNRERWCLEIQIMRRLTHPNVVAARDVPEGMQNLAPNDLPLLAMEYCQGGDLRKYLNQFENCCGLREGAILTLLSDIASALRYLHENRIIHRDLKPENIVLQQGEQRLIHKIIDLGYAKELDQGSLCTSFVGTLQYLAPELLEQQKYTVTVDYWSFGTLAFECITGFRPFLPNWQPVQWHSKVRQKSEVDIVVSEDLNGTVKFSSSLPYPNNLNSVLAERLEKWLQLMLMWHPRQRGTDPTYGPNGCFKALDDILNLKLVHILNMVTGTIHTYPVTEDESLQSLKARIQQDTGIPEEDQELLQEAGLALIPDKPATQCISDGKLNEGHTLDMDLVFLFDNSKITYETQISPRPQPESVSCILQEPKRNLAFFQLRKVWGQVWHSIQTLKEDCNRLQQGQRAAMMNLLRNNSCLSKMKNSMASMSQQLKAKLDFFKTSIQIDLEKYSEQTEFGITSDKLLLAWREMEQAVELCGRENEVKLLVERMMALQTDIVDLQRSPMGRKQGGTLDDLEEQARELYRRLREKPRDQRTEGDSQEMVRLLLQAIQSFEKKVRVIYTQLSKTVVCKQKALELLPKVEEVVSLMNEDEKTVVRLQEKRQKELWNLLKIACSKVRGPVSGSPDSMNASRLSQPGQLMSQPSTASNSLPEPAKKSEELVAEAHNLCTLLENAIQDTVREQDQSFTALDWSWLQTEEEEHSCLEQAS
# assay_notes: Inhibition of IKK2 in presence of 1 uM ATP
property_label: IC50 (nM)

structure_notation | experimental_system | IC50 / nM
CC(C)c1cc2c(-c3ccc(S(=O)(=O)NC4CCS(=O)(=O)CC4)cc3)ccnc2[nH]1 | Inhibitor of nuclear factor kappa-B kinase subunit beta (Homo sapiens) | 6.31
O=S(=O)(NCCO)c1ccc(-c2ccnc3[nH]c(C4CC4)cc23)cc1 | Inhibitor of nuclear factor kappa-B kinase subunit beta (Homo sapiens) | 7.94

a: O=S(=O)(NCCO)c1ccc(-c2ccnc3[nH]c(C(F)(F)F)cc23)cc1
b: C[C@@H](CO)NS(=O)(=O)c1ccc(-c2ccnc3[nH]c(C4CC4)cc23)cc1
c: Cc1cc2c(-c3ncc(S(=O)(=O)NC4CCS(=O)(=O)CC4)cn3)ccnc2[nH]1
Query block: Rank descending by IC50. Your reply should list the labels following the order given in the request.
Result block: c, a, b

I: C[C@@H](CO)NS(=O)(=O)c1ccc(-c2ccnc3[nH]c(C(F)(F)F)cc23)cc1
II: CC(C)(O)CNS(=O)(=O)c1ccc(-c2ccnc3[nH]c(C4CC4)cc23)cc1
Query block: In the pair I and II , the larger recorded IC50 belongs to which? // output: label of the selected item
Result block: I
(I: 20 nM, II: 6.31 nM)

A: O=S1(=O)CCC(NS(=O)(=O)c2ccc(-c3ccnc4[nH]c(Cn5ccnn5)cc34)cc2)CC1
B: CC(C)(C)c1cc2c(-c3ccc(S(=O)(=O)NC4CCS(=O)(=O)CC4)cc3)ccnc2[nH]1
Query block: Of A versus B , which is the one with smaller reported IC50? Respond using the label that marks the chosen record.
Result block: B

---

# assay_notes: Plasma protein binding in human
# Format: ADME, cell-free
# cond: read-out: PPB (converted)
property_label: fraction unbound
Answer field: number only, no words.

Query block: // returns reported fraction unbound for input "O=S(=O)(NCCO)c1ccc(-c2ccnc3[nH]c(C4CC4)cc23)cc1"
Result block: 0.066

---

# experimental_system: Inhibitor of nuclear factor kappa-B kinase subunit beta (Homo sapiens)
# Sequence (O14920 whole entry): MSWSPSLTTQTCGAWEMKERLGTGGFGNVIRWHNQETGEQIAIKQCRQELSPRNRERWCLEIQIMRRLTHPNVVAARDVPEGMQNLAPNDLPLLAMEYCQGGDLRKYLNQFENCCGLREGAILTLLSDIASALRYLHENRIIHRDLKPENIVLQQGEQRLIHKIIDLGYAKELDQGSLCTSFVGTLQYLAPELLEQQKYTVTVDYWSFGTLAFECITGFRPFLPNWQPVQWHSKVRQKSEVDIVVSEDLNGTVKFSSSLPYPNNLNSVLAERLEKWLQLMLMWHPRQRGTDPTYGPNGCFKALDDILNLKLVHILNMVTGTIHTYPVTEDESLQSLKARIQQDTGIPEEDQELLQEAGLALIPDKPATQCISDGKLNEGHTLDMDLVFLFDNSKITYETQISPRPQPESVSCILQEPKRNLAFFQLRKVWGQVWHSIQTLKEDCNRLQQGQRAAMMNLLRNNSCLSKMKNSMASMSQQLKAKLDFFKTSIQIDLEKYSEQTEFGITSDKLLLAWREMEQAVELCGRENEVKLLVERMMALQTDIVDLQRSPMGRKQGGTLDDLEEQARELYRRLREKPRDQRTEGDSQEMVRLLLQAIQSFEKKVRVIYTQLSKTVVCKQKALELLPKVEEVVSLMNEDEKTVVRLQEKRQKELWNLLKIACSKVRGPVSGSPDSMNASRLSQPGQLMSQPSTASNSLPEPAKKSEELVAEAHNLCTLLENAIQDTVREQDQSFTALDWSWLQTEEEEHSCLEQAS
# assay_notes: Inhibition of IKK2 in presence of 1 uM ATP
property_label: IC50 (nM)

structure_notation | units_text | IC50
O=S1(=O)CCC(NS(=O)(=O)c2ccc(-c3ccnc4[nH]c(C5CCNCC5)cc34)cc2)CC1 | nM | 15.8
CN(C)Cc1cc2c(-c3ccc(S(=O)(=O)NC4CCS(=O)(=O)CC4)cc3)ccnc2[nH]1 | nM | 20

1: O=S1(=O)CCC(NS(=O)(=O)c2ccc(-c3ccnc4[nH]c(C5CC5)cc34)cc2)CC1
2: Cc1cc2c(-c3ccc(S(=O)(=O)NC4CCS(=O)(=O)CC4)cn3)ccnc2[nH]1
Query block: Lower value for measured IC50? Options: 1 , 2 Answer = label.
Result block: 1

---

# Test system: Blood
# assay_notes: Inhibition of LPS-stimulated TNFalpha production in rat Whole blood
# Format: functional, tissue-based
property_label: IC50 (µM)
Report the figure in µM without appending any unit label.

Query block: What IC50 appears in the records for this molecule with Blood? "O=S(=O)(NCCO)c1ccc(-c2ccnc3[nH]c(C4CC4)cc23)cc1"
Result block: 6.31

---

# experimental_system: Inhibitor of nuclear factor kappa-B kinase subunit alpha (Homo sapiens)
# Sequence (O15111 whole entry): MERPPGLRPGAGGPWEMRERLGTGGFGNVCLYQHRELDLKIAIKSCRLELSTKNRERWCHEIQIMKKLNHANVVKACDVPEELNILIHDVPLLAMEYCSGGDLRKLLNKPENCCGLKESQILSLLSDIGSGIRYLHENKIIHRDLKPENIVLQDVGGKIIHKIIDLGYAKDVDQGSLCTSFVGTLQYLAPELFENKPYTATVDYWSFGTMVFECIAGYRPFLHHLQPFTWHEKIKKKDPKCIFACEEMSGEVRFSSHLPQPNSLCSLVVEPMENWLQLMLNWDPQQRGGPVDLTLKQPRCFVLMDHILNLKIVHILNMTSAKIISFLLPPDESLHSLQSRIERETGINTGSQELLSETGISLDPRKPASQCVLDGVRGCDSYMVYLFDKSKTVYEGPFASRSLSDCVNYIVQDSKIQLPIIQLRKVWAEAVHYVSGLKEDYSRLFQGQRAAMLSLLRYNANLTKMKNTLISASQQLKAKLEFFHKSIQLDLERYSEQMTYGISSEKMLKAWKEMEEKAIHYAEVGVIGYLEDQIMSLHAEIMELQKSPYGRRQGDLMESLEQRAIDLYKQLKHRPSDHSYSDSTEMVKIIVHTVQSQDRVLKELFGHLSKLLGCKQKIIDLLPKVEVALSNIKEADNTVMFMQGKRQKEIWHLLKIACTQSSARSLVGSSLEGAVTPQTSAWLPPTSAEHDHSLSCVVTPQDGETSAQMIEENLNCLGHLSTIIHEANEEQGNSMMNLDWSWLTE
# assay_notes: Inhibition of IKK1 in presence of 1 uM ATP
pIC50: −log10 of the molar value.
property_label: pIC50

structure_notation | experimental_system | pIC50
CN(C)Cc1cc2c(-c3ccc(S(=O)(=O)NC4CCS(=O)(=O)CC4)cc3)ccnc2[nH]1 | Inhibitor of nuclear factor kappa-B kinase subunit alpha (Homo sapiens) | 7.00

I: Cc1cc2c(-c3ccc(S(=O)(=O)NC4CCS(=O)(=O)CC4)cn3)ccnc2[nH]1
II: Cc1cc2c(-c3ncc(S(=O)(=O)NC4CCS(=O)(=O)CC4)cn3)ccnc2[nH]1
Query block: Parameter check: reported pIC50 is higher for which label, I or II ? # answer = label of selected item
Result block: I
(I: 7.10, II: 6.80)

---

# experimental_system: Inhibitor of nuclear factor kappa-B kinase subunit beta (Homo sapiens)
# assay_notes: Inhibition of IKK2 in presence of 1 uM ATP
pIC50: −log10 of the molar value.
property_label: pIC50

structure_notation | quantitative_readout
CC(C)c1cc2c(-c3ccc(S(=O)(=O)NCCO)cc3)ccnc2[nH]1 | 8.10
CC(C)(C)c1cc2c(-c3ccc(S(=O)(=O)NCCO)cc3)ccnc2[nH]1 | 7.70

P: CCc1cc2c(-c3ccc(S(=O)(=O)NC4CCS(=O)(=O)CC4)cc3)ccnc2[nH]1
Q: Cc1cc2c(-c3ccc(S(=O)(=O)NC4CCS(=O)(=O)CC4)nc3)ccnc2[nH]1
Query block: Hi team, can someone confirm which has the larger pIC50: P or Q ? Thanks. Answer by stating the label of the chosen item.
Result block: P
(P: 8.30, Q: 7.90)

All values here come from ChEMBL document CHEMBL2163232.
